tested system: BATF2 (bZIP);JUNB (human;human, UniProt Q8N1L9;P17275 1-142;148-347, |)
Sequence 1: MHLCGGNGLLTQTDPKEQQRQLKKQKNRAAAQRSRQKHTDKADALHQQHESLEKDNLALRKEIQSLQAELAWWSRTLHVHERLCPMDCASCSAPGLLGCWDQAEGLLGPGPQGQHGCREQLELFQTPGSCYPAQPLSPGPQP
Sequence 2: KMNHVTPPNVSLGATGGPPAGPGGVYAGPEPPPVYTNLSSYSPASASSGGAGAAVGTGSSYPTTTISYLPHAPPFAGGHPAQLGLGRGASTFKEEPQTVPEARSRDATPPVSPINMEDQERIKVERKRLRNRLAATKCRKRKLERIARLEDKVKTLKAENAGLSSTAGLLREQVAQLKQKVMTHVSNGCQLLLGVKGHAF
test: Spec-seq (EMSA and sequencing of bound and unbound bands); 100 nM BATFx-JUNB, 1 uM dsDNA library, 50 mM K acetate, 20 mM Tris-acetate, 10 mM Mg acetate, 100 ug/ml BSA, pH 7.9, 10% glycerol, 30 min on ice; native 9% PAGE at 4 C; low values mean tight binding
cond: protein: recombinant;recombinant; tags: N-terminal mCherry-TEV, cleaved off;C-terminal 6His; copies: 1;1; dsDNA, one strand shown
Rule for this label: fulfilled means binding signal is less than -0.02 kT; not fulfilled means binding signal is at least -0.02 kT.

Before answering, review these 5 worked examples.
>  <residue sequence>
GATAGTCTCATTTTCACCCCGTGAAAATGGGTCATTGTTCCATTACAGTATCTGT

>  <tested system>
BATF2 (bZIP);JUNB (human;human, UniProt Q8N1L9;P17275 1-142;148-347, |)

>  <group label>
not fulfilled

$$$$
>  <residue sequence>
GATAGTCTCATTTTCACCCCGTGAAAAGAGTCATTTGTTCCATTACAGTATCTGT

>  <tested system>
BATF2 (bZIP);JUNB (human;human, UniProt Q8N1L9;P17275 1-142;148-347, |)

>  <group label>
not fulfilled

$$$$
>  <residue sequence>
GATAGTCTCATTTTCACCCCGTGAAATGAGCCACTTGTTCCATTACAGTATCTGT

>  <tested system>
BATF2 (bZIP);JUNB (human;human, UniProt Q8N1L9;P17275 1-142;148-347, |)

>  <group label>
not fulfilled

$$$$
>  <residue sequence>
GATAGTCTCATTTTCACCCCGTGAAAGTGGGTCATTGTTCCATTACAGTATCTGT

>  <tested system>
BATF2 (bZIP);JUNB (human;human, UniProt Q8N1L9;P17275 1-142;148-347, |)

>  <group label>
not fulfilled

$$$$
>  <residue sequence>
GATAGTCTCATTTTCACCCCGTGAAATGACACACTTGTTCCATTACAGTATCTGT

>  <tested system>
BATF2 (bZIP);JUNB (human;human, UniProt Q8N1L9;P17275 1-142;148-347, |)

>  <group label>
not fulfilled

$$$$

q: Please check: binding signal for GATAGTCTCATTTTCACCCCGTGAAATGTGTCATTTGTTCCATTACAGTATCTGT , strictly under -0.02 kT or not?
a: fulfilled

q: Please check: binding signal for GATAGTCTCATTTTCACCCCGTGAAATTAAGTCATTGTTCCATTACAGTATCTGT , strictly under -0.02 kT or not?
a: fulfilled

q: Please check: binding signal for GATAGTCTCATTTTCACCCCGTGAAATAACGTCATTGTTCCATTACAGTATCTGT , strictly under -0.02 kT or not?
a: fulfilled

q: Please check: binding signal for GATAGTCTCATTTTCACCCCGTGAAATGTCGTCATTGTTCCATTACAGTATCTGT , strictly under -0.02 kT or not?
a: fulfilled

q: Please check: binding signal for GATAGTCTCATTTTCACCCCGTGAAAATGCGTCATTGTTCCATTACAGTATCTGT , strictly under -0.02 kT or not?
a: fulfilled

q: Please check: binding signal for GATAGTCTCATTTTCACCCCGTGAAATGACCCACTTGTTCCATTACAGTATCTGT , strictly under -0.02 kT or not?
a: not fulfilled

* * *

tested system: BATF2 (bZIP);JUNB (human;human, UniProt Q8N1L9;P17275 1-142;148-347, |)
Sequence 1: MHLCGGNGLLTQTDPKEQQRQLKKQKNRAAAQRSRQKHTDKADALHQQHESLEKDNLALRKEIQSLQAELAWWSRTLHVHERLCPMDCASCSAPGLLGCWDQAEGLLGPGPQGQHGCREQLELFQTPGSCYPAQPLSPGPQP
Sequence 2: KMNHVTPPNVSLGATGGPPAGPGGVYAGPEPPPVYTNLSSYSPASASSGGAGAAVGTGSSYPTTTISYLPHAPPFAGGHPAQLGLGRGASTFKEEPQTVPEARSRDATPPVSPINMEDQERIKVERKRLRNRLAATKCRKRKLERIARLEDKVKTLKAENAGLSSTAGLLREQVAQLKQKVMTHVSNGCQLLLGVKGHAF
test: Spec-seq (EMSA and sequencing of bound and unbound bands); 100 nM BATFx-JUNB, 1 uM dsDNA library, 50 mM K acetate, 20 mM Tris-acetate, 10 mM Mg acetate, 100 ug/ml BSA, pH 7.9, 10% glycerol, 30 min on ice; native 9% PAGE at 4 C; low values mean tight binding
cond: protein: recombinant;recombinant; tags: N-terminal mCherry-TEV, cleaved off;C-terminal 6His; copies: 1;1; dsDNA, one strand shown
parameter: binding signal (kT)
State just the number; it will be interpreted in kT.

Worked examples, 10 sequences total:
>  <residue sequence>
GATAGTCTCATTTTCACCCCGTGAAATGACTCGTTTGTTCCATTACAGTATCTGT

>  <tested system>
BATF2 (bZIP);JUNB (human;human, UniProt Q8N1L9;P17275 1-142;148-347, |)

>  <binding signal / kT>
0.491

$$$$
>  <residue sequence>
GATAGTCTCATTTTCACCCCGTGAAATGAGCCAATTGTTCCATTACAGTATCTGT

>  <tested system>
BATF2 (bZIP);JUNB (human;human, UniProt Q8N1L9;P17275 1-142;148-347, |)

>  <binding signal / kT>
1.4

$$$$
>  <residue sequence>
GATAGTCTCATTTTCACCCCGTGAAATGAGACATTTGTTCCATTACAGTATCTGT

>  <tested system>
BATF2 (bZIP);JUNB (human;human, UniProt Q8N1L9;P17275 1-142;148-347, |)

>  <binding signal / kT>
1.21

$$$$
>  <residue sequence>
GATAGTCTCATTTTCACCCCGTGAAATGAGTAAATTGTTCCATTACAGTATCTGT

>  <tested system>
BATF2 (bZIP);JUNB (human;human, UniProt Q8N1L9;P17275 1-142;148-347, |)

>  <binding signal / kT>
0.684

$$$$
>  <residue sequence>
GATAGTCTCATTTTCACCCCGTGAAATGAGTGAGTTGTTCCATTACAGTATCTGT

>  <tested system>
BATF2 (bZIP);JUNB (human;human, UniProt Q8N1L9;P17275 1-142;148-347, |)

>  <binding signal / kT>
0.64

$$$$
>  <residue sequence>
GATAGTCTCATTTTCACCCCGTGAAATGAGTCTTTTGTTCCATTACAGTATCTGT

>  <tested system>
BATF2 (bZIP);JUNB (human;human, UniProt Q8N1L9;P17275 1-142;148-347, |)

>  <binding signal / kT>
1.04

$$$$
>  <residue sequence>
GATAGTCTCATTTTCACCCCGTGAAAGAGAGTCATTGTTCCATTACAGTATCTGT

>  <tested system>
BATF2 (bZIP);JUNB (human;human, UniProt Q8N1L9;P17275 1-142;148-347, |)

>  <binding signal / kT>
0.318

$$$$
>  <residue sequence>
GATAGTCTCATTTTCACCCCGTGAAAGTGTGTCATTGTTCCATTACAGTATCTGT

>  <tested system>
BATF2 (bZIP);JUNB (human;human, UniProt Q8N1L9;P17275 1-142;148-347, |)

>  <binding signal / kT>
-0.00937

$$$$
>  <residue sequence>
GATAGTCTCATTTTCACCCCGTGAAAAGGAGTCATTGTTCCATTACAGTATCTGT

>  <tested system>
BATF2 (bZIP);JUNB (human;human, UniProt Q8N1L9;P17275 1-142;148-347, |)

>  <binding signal / kT>
0.436

$$$$
>  <residue sequence>
GATAGTCTCATTTTCACCCCGTGAAATGAGGTCATTGTTCCATTACAGTATCTGT

>  <tested system>
BATF2 (bZIP);JUNB (human;human, UniProt Q8N1L9;P17275 1-142;148-347, |)

>  <binding signal / kT>
0.096

$$$$

q: Return reported binding signal; argument: GATAGTCTCATTTTCACCCCGTGAAACGACTCATTTGTTCCATTACAGTATCTGT
a: 0.616

q: Return reported binding signal; argument: GATAGTCTCATTTTCACCCCGTGAAATGAGTTACTTGTTCCATTACAGTATCTGT
a: 0.967
